# system_tested: T1, HLA-A*01:01 (human)
# T1 construct: MHC class I monomer first loaded with a UV-sensitive peptide (not identified) that is cleaved by UV irradiation and exchanged for the tested peptide; captured on streptavidin plates, detected with anti-β2m; also called peptide-receptive MHC molecules
# procedure_details: UV-ligand exchange, anti-b2m ELISA
# From the text: Candidate peptides for T cell based therapies according to the present invention were further tested for their MHC binding capacity (affinity). The individual peptide-MHC complexes were produced by UV-ligand exchange, where a UV-sensitive peptide is cleaved upon UV-irradiation and exchanged with the peptide of interest as analyzed. Only peptide candidates that can effectively bind and stabilize the peptide-receptive MHC molecules prevent dissociation of the MHC complexes. […]
I'd appreciate it if you could supply peptide exchange yield values for the items below.

Observe how each entry below is paired with its result.
1) QTDVERIKDTY	50 to 75%
2) PVHDSVGVTY	20 to 50%
3) ASSLDSLHY	> 75%
4) FSEPFHLIV	50 to 75%
5) VDPASNTY	20 to 50%

Hi, could you look up peptide exchange yield for each item in my list?
1. FQYELRELY
2. ASDDFRSKY
3. LTSEDTGAY

1: > 75%; 2: 50 to 75%; 3: 50 to 75%

Cited source: patent US20200087364A1
